experiment: self-splicing fitness, log relative to wild type (ln ratio); higher = more splicing; Tetrahymena group I intron in knt gene, E. coli kanamycin selection, DiMSum; sequences stand for … in CUCUCU…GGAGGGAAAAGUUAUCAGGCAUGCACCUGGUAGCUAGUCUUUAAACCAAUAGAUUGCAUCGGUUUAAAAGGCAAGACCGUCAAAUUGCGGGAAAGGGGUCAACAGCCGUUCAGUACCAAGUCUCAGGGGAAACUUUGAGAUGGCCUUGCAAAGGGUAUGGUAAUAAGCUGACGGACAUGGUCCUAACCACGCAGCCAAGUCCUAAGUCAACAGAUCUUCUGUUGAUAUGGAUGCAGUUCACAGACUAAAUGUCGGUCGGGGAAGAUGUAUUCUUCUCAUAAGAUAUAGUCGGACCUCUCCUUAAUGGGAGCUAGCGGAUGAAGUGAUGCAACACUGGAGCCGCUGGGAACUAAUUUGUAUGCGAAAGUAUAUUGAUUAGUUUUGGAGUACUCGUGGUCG; conditions: 37 °C;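 further: selection with 25 µg/mL kanamycin versus none on LB agar overnight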
measuredQuantity: self-splicing fitness (ln)
Answer with the value's number alone.

- CGCAAGCAAUAUUACGUUCG: -0.23
- AGCUAGCAAUAUUACGGCUG: -0.185

Entry "GGGAAGCAAUAUUACGGUGA" needs its self-splicing fitness (ln) filled in; supply it.
-0.447

Entry "UCUCAGCAAUAUUACGUGGG" needs its self-splicing fitness (ln) filled in; supply it.
-2.48

Entry "UUCCAGCAAUAUUACGAAGU" needs its self-splicing fitness (ln) filled in; supply it.
-1.47

Entry "UAUGAGCAAUAUUACGGGUC" needs its self-splicing fitness (ln) filled in; supply it.
-2.91

Entry "UACUAGCAAUAUUACGAUUC" needs its self-splicing fitness (ln) filled in; supply it.
-1.76

Entry "CCAGAGCAAUAUUACGAAAA" needs its self-splicing fitness (ln) filled in; supply it.
-1.54

----------
assay: self-splicing fitness, log relative to wild type (ln ratio); higher = more splicing; Tetrahymena group I intron in knt gene, E. coli kanamycin selection, DiMSum; sequences stand for … in CUCUCU…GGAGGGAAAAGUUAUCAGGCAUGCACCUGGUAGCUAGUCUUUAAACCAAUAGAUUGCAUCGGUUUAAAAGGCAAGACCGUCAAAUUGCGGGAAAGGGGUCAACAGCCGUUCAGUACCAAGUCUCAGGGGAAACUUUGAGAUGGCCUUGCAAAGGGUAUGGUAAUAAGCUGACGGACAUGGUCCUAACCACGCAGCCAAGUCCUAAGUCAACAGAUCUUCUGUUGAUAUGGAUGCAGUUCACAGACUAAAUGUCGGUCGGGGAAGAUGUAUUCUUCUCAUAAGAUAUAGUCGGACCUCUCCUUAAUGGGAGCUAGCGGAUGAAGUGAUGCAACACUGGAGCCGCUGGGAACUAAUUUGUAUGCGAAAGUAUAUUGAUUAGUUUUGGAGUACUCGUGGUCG; conditions: 37 °C
# reported self-splicing fitness (ln); entries follow
Answer with the value's number alone.

• CUCAAGCAAUAUUACGUGUC = -1.65
• CGGCAGCAAUAUUACGGGAG = -1.77
• UUCCAGCAAUAUUACGUAUC = -2.83
• ACUAAGCAAUAUUACGUAAU = -0.739
• AGACAGCAAUAUUACGAAUC = -3.41

Entry "UUCAAGCAAUAUUACGGAUG" needs its self-splicing fitness (ln) filled in; supply it.
-1.7

Entry "GUAGAGCAAUAUUACGAAGC" needs its self-splicing fitness (ln) filled in; supply it.
-0.723

Entry "GAUAAGCAAUAUUACGCAAA" needs its self-splicing fitness (ln) filled in; supply it.
-1.49

----------
# reported self-splicing fitness (ln); entries follow
test: self-splicing fitness, log relative to wild type (ln ratio); higher = more splicing; Tetrahymena group I intron in knt gene, E. coli kanamycin selection, DiMSum; sequences stand for … in CUCUCU…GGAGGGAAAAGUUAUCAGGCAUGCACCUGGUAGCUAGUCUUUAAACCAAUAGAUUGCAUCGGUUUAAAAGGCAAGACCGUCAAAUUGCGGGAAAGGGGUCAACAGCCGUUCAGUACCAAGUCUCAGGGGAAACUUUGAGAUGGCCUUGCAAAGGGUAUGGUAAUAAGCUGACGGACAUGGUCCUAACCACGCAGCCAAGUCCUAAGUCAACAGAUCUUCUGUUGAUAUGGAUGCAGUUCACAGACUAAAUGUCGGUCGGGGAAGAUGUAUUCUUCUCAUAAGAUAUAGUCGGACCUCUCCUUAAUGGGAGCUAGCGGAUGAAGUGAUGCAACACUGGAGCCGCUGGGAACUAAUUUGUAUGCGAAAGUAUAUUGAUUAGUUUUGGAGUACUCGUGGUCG; conditions: 37 °C
Answer with the value's number alone.

Reference set, count: 4
• AAGAAGCAAUAUUACGCACU = -0.103
• UCCCAGCAAUAUUACGGCGG = -2.21
• CGAGAGCAAUAUUACGAUGC = -1.63
• GCCCAGCAAUAUUACGCGGC = -2.51

Entry "CAUGAGCAAUAUUACGGUUC" needs its self-splicing fitness (ln) filled in; supply it.
-2.13

Entry "GUAGAGCAAUAUUACGCCCA" needs its self-splicing fitness (ln) filled in; supply it.
-0.471

Entry "GUGAAGCAAUAUUACGGGGG" needs its self-splicing fitness (ln) filled in; supply it.
-3.08

Entry "AUCCAGCAAUAUUACGAAUG" needs its self-splicing fitness (ln) filled in; supply it.
-1.36

----------
test: self-splicing fitness, log relative to wild type (ln ratio); higher = more splicing; Tetrahymena group I intron in knt gene, E. coli kanamycin selection, DiMSum; sequences stand for … in CUCUCU…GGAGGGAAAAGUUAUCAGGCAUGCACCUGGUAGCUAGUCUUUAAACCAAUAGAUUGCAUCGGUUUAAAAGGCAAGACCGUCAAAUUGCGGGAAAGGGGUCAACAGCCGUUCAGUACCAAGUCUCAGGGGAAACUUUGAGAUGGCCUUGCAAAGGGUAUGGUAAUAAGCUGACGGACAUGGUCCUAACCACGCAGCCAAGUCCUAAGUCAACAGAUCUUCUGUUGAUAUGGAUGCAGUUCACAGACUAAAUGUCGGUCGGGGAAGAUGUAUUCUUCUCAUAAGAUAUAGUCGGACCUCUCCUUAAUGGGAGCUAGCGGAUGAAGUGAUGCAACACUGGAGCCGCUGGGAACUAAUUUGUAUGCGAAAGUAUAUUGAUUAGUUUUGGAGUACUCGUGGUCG; conditions: 37 °C
Record Criterion met whenever self-splicing fitness (ln) is at -1 or higher; record Criterion not met when lower.

Would you please look over these solved cases?
• UGGAAGCAAUAUUACGCCAA = Criterion met
• UCUCAGCAAUAUUACGCGCA = Criterion met
• UGAGAGCAAUAUUACGAGCA = Criterion met
• ACCAAGCAAUAUUACGCGAU = Criterion not met
• CUCCAGCAAUAUUACGGAAC = Criterion not met
• ACAGAGCAAUAUUACGUAAA = Criterion not met

Given the entry "CCAAAGCAAUAUUACGAAGU" , answer whether its self-splicing fitness (ln) meets or surpasses -1.
Criterion not met

Given the entry "CCUCAGCAAUAUUACGCAAU" , answer whether its self-splicing fitness (ln) meets or surpasses -1.
Criterion not met

Given the entry "GCAAAGCAAUAUUACGAACC" , answer whether its self-splicing fitness (ln) meets or surpasses -1.
Criterion met

----------
# reported self-splicing fitness (ln); entries follow
experiment: self-splicing fitness, log relative to wild type (ln ratio); higher = more splicing; Tetrahymena group I intron in knt gene, E. coli kanamycin selection, DiMSum; sequences stand for … in CUCUCU…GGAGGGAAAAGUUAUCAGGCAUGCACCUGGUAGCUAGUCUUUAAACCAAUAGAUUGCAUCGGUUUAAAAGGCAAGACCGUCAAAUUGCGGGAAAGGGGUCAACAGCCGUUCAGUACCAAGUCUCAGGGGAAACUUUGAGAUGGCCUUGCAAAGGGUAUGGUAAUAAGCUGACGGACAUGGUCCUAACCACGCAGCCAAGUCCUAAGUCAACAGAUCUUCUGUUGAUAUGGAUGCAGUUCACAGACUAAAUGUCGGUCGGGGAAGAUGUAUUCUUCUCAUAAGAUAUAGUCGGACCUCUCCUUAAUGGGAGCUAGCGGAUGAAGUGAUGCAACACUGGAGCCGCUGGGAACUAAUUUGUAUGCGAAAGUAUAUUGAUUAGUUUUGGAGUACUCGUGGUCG; settings: 30 °C

- UUUAAGCAAUAUUACGAUGC: -1.41
- UUCUAGCAAUAUUACGGUGA: -0.462

Entry "AAGUAGCAAUAUUACGUACC" needs its self-splicing fitness (ln) filled in; supply it.
-0.997

Entry "CGACAGCAAUAUUACGUCAU" needs its self-splicing fitness (ln) filled in; supply it.
-3.41

Entry "AGCGAGCAAUAUUACGACGC" needs its self-splicing fitness (ln) filled in; supply it.
-1.92

Entry "UUUCAGCAAUAUUACGUCGG" needs its self-splicing fitness (ln) filled in; supply it.
-1.51

Entry "CCUGAGCAAUAUUACGUCAU" needs its self-splicing fitness (ln) filled in; supply it.
-3.5

Entry "GGCCAGCAAUAUUACGUAUG" needs its self-splicing fitness (ln) filled in; supply it.
-4.17

Entry "AACAAGCAAUAUUACGAGAA" needs its self-splicing fitness (ln) filled in; supply it.
-2.78

Entry "AUGUAGCAAUAUUACGGCAC" needs its self-splicing fitness (ln) filled in; supply it.
-1.59

Entry "CCAUAGCAAUAUUACGGUCA" needs its self-splicing fitness (ln) filled in; supply it.
-3

Entry "CGACAGCAAUAUUACGGAGC" needs its self-splicing fitness (ln) filled in; supply it.
-2.83

Entry "AGUAAGCAAUAUUACGGUUC" needs its self-splicing fitness (ln) filled in; supply it.
-2.9

Entry "UCGUAGCAAUAUUACGCGCU" needs its self-splicing fitness (ln) filled in; supply it.
-2.31

Entry "GGAAAGCAAUAUUACGAGGU" needs its self-splicing fitness (ln) filled in; supply it.
-3.65

Entry "GCCGAGCAAUAUUACGCGGU" needs its self-splicing fitness (ln) filled in; supply it.
-3.47
